- System Under Test: Sigma non-opioid intracellular receptor 1 (Cavia porcellus, UniProt Q60492)
- Sequence (Q60492 whole entry): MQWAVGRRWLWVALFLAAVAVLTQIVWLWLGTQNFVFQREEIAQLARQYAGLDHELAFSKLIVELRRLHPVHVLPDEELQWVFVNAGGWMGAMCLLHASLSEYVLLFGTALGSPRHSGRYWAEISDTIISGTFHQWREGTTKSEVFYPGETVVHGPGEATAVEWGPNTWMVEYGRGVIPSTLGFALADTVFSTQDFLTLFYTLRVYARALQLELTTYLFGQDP
- Protocol Summary: Displacement of [3H]-(+)-pentazocine from Sigma1 receptor in guinea pig cortex membranes incubated for 120 mins by microbeta scintillation counting method
- Type: cell membranes
pKi: −log10 of the molar value.
Parameter threshold = 7. Response is 1 (yes) when pKi meets or exceeds it, else 0 (no).

Please review the following examples before continuing.
C[C@H](O)CN1CCN(CCSC(c2ccc(F)cc2)c2ccc(F)cc2)CC1 ... 1 (yes)
OC(CN1CCC2(CCN(CCSC(c3ccc(F)cc3)c3ccc(F)cc3)CC2)C1)c1ccccc1 (centres undefined) ... 1 (yes)
OC(Cc1ccc(C(F)(F)F)cc1)CN1CCN(CCSC(c2ccc(F)cc2)c2ccc(F)cc2)CC1 (centres undefined) ... 0 (no)
C[C@@H](O)CN1CCN(CC[S+]([O-])C(c2ccc(F)cc2)c2ccc(F)cc2)CC1 (some centres undefined) ... 0 (no)
[O-][S+](CCCN1CCN(CCCc2ccccc2)CC1)C(c1ccc(F)cc1)c1ccc(F)cc1 (centres undefined) ... 1 (yes)

Alright, here's another molecule for you.
Query: Please indicate if the recorded pKi for CC(O)CN1[C@H](C)CN(CC[S+]([O-])C(c2ccc(F)cc2)c2ccc(F)cc2)C[C@@H]1C (some centres undefined) meets or exceeds 7.
Response: 0 (no)

* * *

- System Under Test: Sodium-dependent dopamine transporter (Rattus norvegicus)
- Sequence (P23977 whole entry): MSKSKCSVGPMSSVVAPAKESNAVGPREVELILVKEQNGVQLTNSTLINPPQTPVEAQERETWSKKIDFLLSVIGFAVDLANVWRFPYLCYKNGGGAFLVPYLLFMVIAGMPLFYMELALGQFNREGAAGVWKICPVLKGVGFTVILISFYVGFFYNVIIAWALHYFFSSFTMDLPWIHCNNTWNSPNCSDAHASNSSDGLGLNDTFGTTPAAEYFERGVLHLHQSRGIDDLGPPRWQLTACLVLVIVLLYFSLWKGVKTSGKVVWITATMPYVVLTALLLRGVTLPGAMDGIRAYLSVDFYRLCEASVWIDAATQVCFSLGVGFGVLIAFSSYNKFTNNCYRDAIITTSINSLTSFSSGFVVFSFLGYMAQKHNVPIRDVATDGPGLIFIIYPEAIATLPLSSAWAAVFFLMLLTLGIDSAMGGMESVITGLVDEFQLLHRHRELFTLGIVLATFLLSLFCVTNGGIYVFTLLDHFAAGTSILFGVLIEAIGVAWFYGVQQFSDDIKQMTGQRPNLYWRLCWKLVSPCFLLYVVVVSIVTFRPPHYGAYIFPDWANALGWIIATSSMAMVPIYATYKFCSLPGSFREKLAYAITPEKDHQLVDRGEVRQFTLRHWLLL
- Protocol Summary: Displacement of [3H]WIN35428 from DAT in Sprague-Dawley rat striatum membranes incubated for 120 mins by microbeta scintillation counting method
- Type: cell membranes, Membrane
Attribute Measured: pKi
Friendly reminder that pKi comes from taking -log10 of the concentration in mol/L.

Solved entries (count: 3):
C[C@@H]1CN(CCSC(c2ccc(F)cc2)c2ccc(F)cc2)C[C@H](C)N1 ... 7.03
CC(O)CN1[C@H](C)CN(CCSC(c2ccc(F)cc2)c2ccc(F)cc2)C[C@@H]1C (mixture of isomers) ... 7.64
COc1ccc(CC(O)CN2CCN(CC[S+]([O-])C(c3ccc(F)cc3)c3ccc(F)cc3)CC2)cc1 (stereo not given) ... 8.52

Query: So what's the measured pKi for this one? Fc1ccc(C(SCCCN2CCN(CCCc3ccccc3)CC2)c2ccc(F)cc2)cc1
Response: 8.06

Query: So what's the measured pKi for this one? CCC(=O)N1CCN(CCSC(c2ccc(F)cc2)c2ccc(F)cc2)CC1
Response: 5.29

* * *

Recorded Ki, one value per entry.
- Protocol Summary: Displacement of [3H]WIN35428 from DAT Y156F mutant (unknown origin) transiently expressed in COS7 cells incubated for > 90 mins by beta scintillation counting method
- Format: cell-based, Homo sapiens
- Conditions: cos-7

Solved entries (count: 2):
OC(CN1CCC2(CCN(CCSC(c3ccc(F)cc3)c3ccc(F)cc3)CC2)C1)c1ccccc1 (stereo not drawn) ... 239 nM
CC(O)CN1[C@H](C)CN(CC[S+]([O-])C(c2ccc(F)cc2)c2ccc(F)cc2)C[C@@H]1C (stereo partly drawn) ... 3030 nM

Note: attention shifts to another entry.
Query: So what's the measured Ki for this one? C[C@@H]1CN(CC[S+]([O-])C(c2ccc(F)cc2)c2ccc(F)cc2)C[C@H](C)N1CC(O)Cc1ccccc1 (stereo partly drawn)
Response: 19.1 nM

* * *

A set of molecules tested on Sodium-dependent dopamine transporter (Rattus norvegicus, UniProt P23977), with measured log10 Ki:
Hey, these are logged values: log10 of Ki, nM being the unit before logging.

Query: So what's the measured log10 Ki for this one? [O-][S+](CCN1CCN(CC(O)Cc2ccc(F)cc2)CC1)C(c1ccc(F)cc1)c1ccc(F)cc1 (centres undefined)
Response: 0.11

Query: So what's the measured log10 Ki for this one? [O-][S+](CCN1CCN(C[C@H](O)Cc2ccccc2)CC1)C(c1ccc(F)cc1)c1ccc(F)cc1 (some centres undefined)
Response: 0.56

Query: So what's the measured log10 Ki for this one? [O-][S+](CCN1CCN(C[C@@H](O)Cc2ccccc2)CC1)C(c1ccc(F)cc1)c1ccc(F)cc1 (some centres undefined)
Response: 0.13

Query: So what's the measured log10 Ki for this one? COc1ccc(CC(O)CN2CCN(CCSC(c3ccc(F)cc3)c3ccc(F)cc3)CC2)cc1 (centres undefined)
Response: 0.28

Query: So what's the measured log10 Ki for this one? O[C@@H](Cc1ccccc1)CN1CCN(CCSC(c2ccc(F)cc2)c2ccc(F)cc2)CC1
Response: 0.18
